Source listed as PubChem BioAssay (NCATS).

- assayedTarget: Methanococcus maripaludis chaperonin (MmCpn) (UniProt Q6LX38)
- Sequence (Q6LX38 1-543): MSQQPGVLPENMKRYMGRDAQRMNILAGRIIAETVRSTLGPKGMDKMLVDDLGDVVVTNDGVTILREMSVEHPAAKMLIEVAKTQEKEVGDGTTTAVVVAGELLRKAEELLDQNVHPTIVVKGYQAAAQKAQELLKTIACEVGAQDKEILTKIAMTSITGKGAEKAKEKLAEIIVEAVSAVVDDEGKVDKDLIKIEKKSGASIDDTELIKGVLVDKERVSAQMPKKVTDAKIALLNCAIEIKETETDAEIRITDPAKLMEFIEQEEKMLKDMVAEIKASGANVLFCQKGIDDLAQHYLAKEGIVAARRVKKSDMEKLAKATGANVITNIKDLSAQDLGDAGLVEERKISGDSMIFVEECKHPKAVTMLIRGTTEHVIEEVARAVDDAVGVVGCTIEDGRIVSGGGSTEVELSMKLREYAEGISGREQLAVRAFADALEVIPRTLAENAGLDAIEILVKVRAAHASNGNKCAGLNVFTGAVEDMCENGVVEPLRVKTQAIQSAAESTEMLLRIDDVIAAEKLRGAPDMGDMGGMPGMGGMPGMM
- assayText: High-Throughput Screening for Modulators of Cytosolic Chaperonin Activity: MmCpn Primary Screen (AID 488978);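 further: 50 nM MmCpn enzyme hydrolysing 30 µM ATP at 37 °C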
- assayConditions: Purified MmCpn ATPase activity, ADP HTRF detection, 10 min; series mostly up to 76.9 µM
Activity calls are given as the source filed them. The call rests on the fitted dose curve; in most records, active means well fitted curve in the direction sought with a large enough effect; inconclusive means small, poorly fitted or top-dose-only effect, or another doubt; inactive means no such curve, though single readings can be large or run the other way.

{"columns": ["chemicalString", "assayedTarget", "outcome"],
 "data": [
  ["C[C@]12N[C@H](Cc3ccccc31)c1ccccc12", "Methanococcus maripaludis chaperonin (MmCpn) (UniProt Q6LX38)", "inactive"],
  ["O=C(O)CC[N+](=O)[O-]", "Methanococcus maripaludis chaperonin (MmCpn) (UniProt Q6LX38)", "inactive"],
  ["C[C@@H]1O[C@H](C[N+](C)(C)C)C[C@H]1O", "Methanococcus maripaludis chaperonin (MmCpn) (UniProt Q6LX38)", "inactive"]
]}
